src = PubChem BioAssay AID588466

Biological target: Desmoglein-3 (Homo sapiens)
Experiment: inhibitors of anti-DSG3 scFv binding to DSG3, confirmation, biochemical, cherry pick 1, bead-based, flow cytometry (AID 588466);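 note: 100% = 2% DMSO vehicle and 0% = excess soluble DSG3 blocking control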
Settings: Protein G beads with DSG3, scFv-GFP binding, at 10 µM, hits give low values
Hit rate of the full screen: of about 2,100 compounds, about 30 (1%) were called active. The list is a sample of the results.
I'd be grateful if you could share measured binding response (% of DMSO) for these entries.

Form field binding response (% of DMSO), entry COc1cccc(C(=O)NCCn2ccc3ccccc32)c1 : 112% (inactive)

Documented binding response (% of DMSO) of CCN(CC)CCn1c2c(c(SCC(=O)Nc3ccc(C)c(F)c3)nc1=O)CCC2 : 103% (inactive)

response.value for O=C(c1cc(S(=O)(=O)N2CCOCC2)ccc1F)N1CCCc2ccccc21 (field: binding response (% of DMSO)) = 104% (inactive)

Field binding response (% of DMSO) (entry Cc1ccc([C@H]2C[C@H](n3cc(C4CC4)nn3)[C@@H](O)CN2Cc2cccs2)cc1 ) reads 119% (inactive)

binding response (% of DMSO) reported for this compound CN(Cc1cc2ccccc2[nH]c1=O)S(C)(=O)=O : 100% (inactive)

Record CSc1ccccc1OCc1cc(C(=O)N2CCN(Cc3nccn3C)CC2)no1 , field binding response (% of DMSO): 106% (inactive)
